# protocol.description: gradient 5% acetonitrile 3 min, to 50% in 2 min, to 85% in 15 min, held 3 min, 100 µL/min
# test.conditions: column: Zorbax Extend-C18 2.1 x 50 mm; eluents: water / acetonitrile, 0.1% formic acid
Parameter threshold = 800 s. Response is criterion met when RP-LC retention time meets or exceeds it, else criterion not met.

The examples below pair each entry with its known result.
>  <molecule>
CCn1c(=O)n(CC(=O)N(C)C2CCCCC2)c(=O)c2cnc(-c3ccccc3)nc21

>  <answer.label>
criterion met

$$$$
>  <molecule>
Cc1cc(NC(=O)CSc2c(-c3ccccc3)[nH]c3ccccc23)no1

>  <answer.label>
criterion met

$$$$
>  <molecule>
O=C(NCCc1c[nH]c2ccccc12)C(=O)c1cn(CC(=O)N2CCOCC2)c2ccccc12

>  <answer.label>
criterion met

$$$$

### Prompt Please tell me: is the molecule CN(C)c1ccccc1CN1CCCN(Cc2ccccc2N(C)C)C1c1ccncc1 at or over 800 s in terms of RP-LC retention time?
### Response criterion not met

### Prompt Please tell me: is the molecule Cc1ccc(-c2noc(Cn3c(=O)n(CC4CCCO4)c(=O)c4ccccc43)n2)cc1 (stereo not given) at or over 800 s in terms of RP-LC retention time?
### Response criterion met

### Prompt Please tell me: is the molecule Cc1noc(C)c1CCC(=O)Nc1nnc(-c2ccsc2)o1 at or over 800 s in terms of RP-LC retention time?
### Response criterion not met

### Prompt Please tell me: is the molecule Cc1ccc(-c2csc(NC(=O)CCCOc3ccccc3C)n2)cc1 at or over 800 s in terms of RP-LC retention time?
### Response criterion met

### Prompt Please tell me: is the molecule O=C(C1CCN(c2ncnc3c2nc2n3CCCCC2)CC1)N1CCN(c2ccccn2)CC1 at or over 800 s in terms of RP-LC retention time?
### Response criterion not met

### Prompt Please tell me: is the molecule O=C(Nc1ccc(F)cc1F)N1CCc2nc(-c3ccc(F)cc3)ncc2C1 at or over 800 s in terms of RP-LC retention time?
### Response criterion met

### Prompt Please tell me: is the molecule Cc1ccc(C(=O)N2CCN(c3ccccn3)CC2)cc1NC(=O)C1=CSCCO1 at or over 800 s in terms of RP-LC retention time?
### Response criterion not met
